Values were extracted from ChEMBL document CHEMBL3301451.

# key: entry, value: inhibition
system: Plasmodium falciparum; assay: MMV: P. falciparum NF54 functionally mature Stage V gametocytes were incubated for 24 hr in the presence of the test compounds. Gamete formation was then triggered by addition of 2uM xantheurenic acid and temperature decrease to ~20C. Male gamete exflagellation was recorded and analysed by automated microscopy after 20 min. All compounds were tested in 4 independent experiments and data presented here is the mean.; type: functional; parameters: concentration or dose not given beside the values
readout.name: inhibition (%)

molecule: O=c1nc(C=Cc2ccc(Cl)cc2)oc2ccccc12
output.unit: %
measurement: 41

molecule: CCCCCCn1c(=N)n(CC(O)COc2cccc(C)c2)c2ccccc21.Cl (configuration not stated)
output.unit: %
measurement: -52.7

molecule: Oc1ccc2ccccc2c1CNc1nc2ccccc2[nH]1
output.unit: %
measurement: 31.6

molecule: CCCCNCC(O)(c1ccc(Cl)cc1)c1ccc(Cl)cc1
output.unit: %
measurement: 5.76

molecule: Cc1cc(N(C)C)nc(Nc2ccc(NC(=O)Nc3ccccc3)cc2)n1
output.unit: %
measurement: 33.6

molecule: O=C(NC1CCN(Cc2ccccc2)CC1)c1cc(-c2cccnc2)nc2ccc(Cl)cc12
output.unit: %
measurement: -6.01

molecule: O=C(O)C(=O)O.Oc1ccc(Br)cc1CN1CCN(Cc2cccc(F)c2)CC1
output.unit: %
measurement: 27.2

molecule: O=c1c2c([nH]c3ccccc13)CCCC2
output.unit: %
measurement: 51

molecule: CCOC(=O)c1cnc2ccc(CC)cc2c1O
output.unit: %
measurement: 65.8

molecule: Cn1c(C(=O)c2cccc3ccccc23)nc2ccccc21
output.unit: %
measurement: -24.7

molecule: COc1ccc2nc(N)nc(C)c2c1
output.unit: %
measurement: 45.7

molecule: CN(C)c1ccc(-c2nc3cc(N)ccc3[nH]2)cc1
output.unit: %
measurement: 12.2
